All figures here come from PubChem BioAssay (NCI).

System: HT29 colon
assay overview: NCI tumour cell line growth inhibition, 48 h; in the data active means GI50 below about 0.43 µM; inactive means the rest
Result category, one only: yes (1) (active), no (0) (inactive)

Solved entries (count: 2):
INSERT INTO results (compound, group_label) VALUES
  ('O=C(/C=C/c1ccc(B(O)O)cc1)/C=C/c1ccc(B(O)O)cc1', 'no (0)'),
  ('CO[C@H](C(=O)[C@@H](O)[C@@H](C)O)[C@@H]1Cc2cc3cc(O[C@H]4C[C@@H](O[C@H]5C[C@@H](O)[C@H](O)C(C)O5)[C@H](O)C(C)O4)c(C)c(O)c3c(O)c2C(=O)[C@H]1O[C@H]1C[C@@H](O[C@H]2C[C@@H](O[C@H]3C[C@@H](OC)[C@H](O)C(C)O3)[C@@H](O)C(C)O2)C(O)(O)C(C)O1 (stereo partly drawn)', 'yes (1)');

Please find the next compound below.
Answer briefly: the call reported for Cc1[nH]ncc1-c1cc2nc(C3CC4CCN3CC4)[nH]c(=O)c2s1 (stereo not drawn) in this assay.
no (0)

---

Exercise: for every item that follows, state its recorded TGI.
System: SK-MEL-28 melanoma
assay overview: NCI tumour cell line growth inhibition, 48 h

The examples below pair each entry with its known result.
INSERT INTO measurements (compound, result) VALUES
  ('CC(=O)OCC1OC(Nc2[nH]c(=O)n(C)c(=O)c2-c2csc(N)n2)C(OC(C)=O)C(OC(C)=O)C1OC(C)=O (stereo not given)', '> 100 µM'),
  ('COc1cccc([C@H]2CC(=O)c3cc4c(cc3N2)OCO4)c1', '> 100 µM'),
  ('C=C1C(=O)OC2/C=C(\C)C(OC(C)=O)C3OC3C(C)(O)CC(OC(=O)/C(C)=C/C)C12 (stereo not given)', '16.2 µM'),
  ('C1=C(c2ccccc2)CN(c2ccccc2)OC1', '> 100 µM'),
  ('Cc1ccc(S(=O)(=O)N/N=C/c2oc(-c3cccc([N+](=O)[O-])c3)c(-c3cccc([N+](=O)[O-])c3)c2[N+](=O)[O-])cc1', '> 100 µM');

Go through the list and state TGI for each entry.
1. CCOC(=O)c1cnc(-n2[nH]c(C)c(CCO)c2=O)[nH]c1=O
2. COc1cc2c(cc1O)C=NCC2
3. O=C1C=CC2CCC1C2 (stereo not given)
4. CCOC(=O)c1cn(-c2ccccc2)c(=S)n2c1nc1ccccc12
5. O=C(/C=C/c1ccc(B(O)O)cc1)/C=C/c1ccc(B(O)O)cc1

1: > 100 µM; 2: > 100 µM; 3: 89.9 µM; 4: > 73.4 µM; 5: 5.21 µM

---

System: U251 CNS
assay overview: NCI tumour cell line growth inhibition, 48 h
metric name: TGI

The examples below pair each entry with its known result.
INSERT INTO measurements (compound, result) VALUES
  ('COC(=O)N1CC2(CO)C3CC=C(C(=O)Nc4ccccc4Br)C2C1C3Br (stereo not given)', '> 50 µM'),
  ('CC1=NN(c2nc(N)nc(-c3ccccc3S(N)(=O)=O)n2)C(C)(C)C1', '> 100 µM'),
  ('O=C(c1ccccc1)c1c(NCC(O)CN2CCCC2)n(Cc2ccccc2)c(=O)n(Cc2ccccc2)c1=O (stereo not given)', '29.6 µM'),
  ('COc1cc2c(cc1OC)C13CCN4C=C5CCOC6CC(=O)N2C1C6C5CC43 (stereo not given)', '> 100 µM'),
  ('CC(=O)N1CCN(C2=Nc3ccccc3CO2)C1=S', '> 100 µM'),
  ('CC[P+](C)(Cc1ccccc1)c1ccccc1 (stereo not given)', '> 100 µM'),
  ('N#Cc1cc(C#N)c(Cl)nc1N', '> 10 µM'),
  ('CC(=O)OCC1OC(Nc2[nH]c(=O)n(C)c(=O)c2-c2csc(N)n2)C(OC(C)=O)C(OC(C)=O)C1OC(C)=O (stereo not given)', '> 100 µM');

Go through the list and state TGI for each entry.
1. CC(=O)C1=C(O)C=C2Oc3c(C(=O)/C=C/c4cc(C(F)(F)F)cc(C(F)(F)F)c4)c(O)c(C)c(O)c3[C@]2(C)C1=O
2. O=C(c1ccccc1)c1ccc2c(c1)nc1n2C(c2c(Cl)cccc2Cl)SC1 (stereo not given)

1. 1.7 µM
2. > 100 µM

---

Tested on: OVCAR-5 ovarian
assay overview: NCI tumour cell line growth inhibition, 48 h
Exercise: for every item that follows, state its recorded TGI.

The examples below pair each entry with its known result.
INSERT INTO measurements (compound, result) VALUES
  ('O=C(O)CSCc1cccc2ccccc12', '> 100 µM'),
  ('CC/C(Cc1ccccc1)=C(\c1ccc(OCCN2CCCCCC2)cc1)c1ccc(OC(=O)NCc2ccccc2)cc1', '12.8 µM'),
  ('C=C(CNC(=O)Nc1ccc(-c2ccccc2)cc1)c1ccc(C(=O)Nc2ccccc2N)cc1', '> 100 µM'),
  ('CC1=CC2CC(C)=C(CC[C@]3(C)CC[C@H]([C@@H](C)C(=O)O)OO3)C(C)(C)C2CC1 (stereo partly drawn)', '3.8 µM'),
  ('CCC(C)[C@H](NC(=O)[C@H](Cc1ccccc1)NC(=O)N(CC)c1ccccc1)C(=O)N[C@@H](CC(C)C)C(=O)OC (stereo partly drawn)', '> 100 µM');

Go through the list and state TGI for each entry.
1. O=C1c2c(F)c(F)c(F)c(F)c2SC2=NCCN12
2. CCCC(=O)O
3. Nc1nc2c(=O)c3ccccc3sc2s1
4. FC(F)(F)C1(Cl)C(c2ccccc2)=C1c1ccccc1
5. N=C(c1ccccc1)N(c1ccccc1)c1ccccc1
6. S=c1sc2c(Cl)ncnc2n1-c1ccccc1

["29.2 µM", "> 18700 µM", "> 100 µM", "31.3 µM", "> 100 µM", "53.8 µM"]

---

Test system: SF-295 CNS
assay overview: NCI tumour cell line growth inhibition, 48 h
Exercise: for every item that follows, state its recorded GI50.

The examples below pair each entry with its known result.
INSERT INTO measurements (compound, assayed_system, metric_name, result) VALUES
  ('CC(C)(C)OC(=O)NCCNC1=CC(=O)c2nc3ccccc3c3ccnc1c23', 'SF-295 CNS', 'GI50', '18.2 µM'),
  ('CC1=C([Se]CC(OC(=O)[C@@H](CSSC(C)(C)C)NC(=O)OC(C)(C)C)C(=O)NC(C)(C)C)C(=O)c2ccccc2C1=O (stereo not given in full)', 'SF-295 CNS', 'GI50', '1.22 µM'),
  ('Cc1ccccc1NC(=S)Nc1ccccn1', 'SF-295 CNS', 'GI50', '> 100 µM');

Go through the list and state GI50 for each entry.
1. C=CC(=O)Nc1ccc(Nc2nccc(-c3ccc(N4CCCC4)c(C#N)c3)n2)cc1
2. COc1cccc([C@H]2CC(=O)c3cc4c(cc3N2)OCO4)c1
3. O=C(/C=C/c1ccc(B(O)O)cc1)/C=C/c1ccc(B(O)O)cc1
4. CC1=NN(C(=O)c2ccccc2O)C(=O)/C1=C/c1ccc([N+](=O)[O-])cc1
5. COc1ccc2c(c1)C(=O)c1c-2n(CCCN)c(=O)c2ccccc12
6. c1ccc(CNC2CC(NCc3ccccn3)CC(NCc3ccccn3)C2)nc1 (stereo not given)

1. 9.44 µM
2. 0.0958 µM
3. 2.02 µM
4. 0.379 µM
5. 0.015 µM
6. 5.03 µM

Write down the reported GI50 of Cc1c2cc[nH]c(=O)c2c(C)c2c1[nH]c1cc(OCCN3CCN(C)CC3)ccc12 , test system: SF-295 CNS.
0.788 µM

---

Tested on: IGROV1 ovarian
assay overview: NCI tumour cell line growth inhibition, 48 h
metric name: TGI (µM)
Give bare numbers, in µM.

The examples below pair each entry with its known result.
INSERT INTO assay_data (compound, units_of_measure, numeric_readout) VALUES
  ('Clc1ccc2c(SCC3CO3)c3ccccc3nc2c1 (stereo unspecified)', 'µM', 2.9),
  ('O=C(c1ccccc1)c1c(NCC(O)CN2CCCC2)n(Cc2ccccc2)c(=O)n(Cc2ccccc2)c1=O (stereo unspecified)', 'µM', 52.8),
  ('CC1=C(C(=O)NCc2ccccc2)C(c2ccc(C3C(C(=O)NCc4ccccc4)=C(C)NC(C)=C3C(=O)NCc3ccccc3)cc2)C(C(=O)NCc2ccccc2)=C(C)N1', 'µM', 37.8),
  ('CC1=CC2CC(C)=C(CC[C@]3(C)CC[C@H]([C@@H](C)C(=O)O)OO3)C(C)(C)C2CC1 (stereo partly specified)', 'µM', 0.453);

Go through the list and state TGI for each entry.
1. CC(=O)N1CCN(C2=Nc3ccccc3CO2)C1=S
2. CC[n+]1cnc(N)c2c(-c3ccc(Cl)cc3)cn(-c3ccc(C)cc3)c21
3. C=C1C(=O)OC2/C=C(\C)C(OC(C)=O)C3OC3C(C)(O)CC(OC(=O)/C(C)=C/C)C12 (stereo unspecified)
4. Cc1ccc(S(=O)(=O)N/N=C/c2oc(-c3cccc([N+](=O)[O-])c3)c(-c3cccc([N+](=O)[O-])c3)c2[N+](=O)[O-])cc1
5. CN(C)CCCOc1ccccc1NC1=C(Cl)C(=O)C(Nc2ccccc2OCCCN(C)C)=C(Cl)C1=O
6. COc1ccc2c(c1)C(=O)c1c-2n(CCCN)c(=O)c2ccccc12

1: 58.1; 2: 26.5; 3: 35.7; 4: 91.2; 5: 0.969; 6: 0.689
